These data points were gathered from patent US20250325552A1.

# measured on: Polθ theta (1-899) (hPolQ) (Homo sapiens (Human))
# protocol details: Biological Assay 1: Polθ ATPase activity, NADH oxidation-coupled enzymatic assay (10 nM enzyme, 30 min)
# Assay type: biochemical
# condition label: Polθ (1-899) 10 nM, 100 μM ATP, 300 nM dT50 ssDNA; Examples 1 to 268; read-out: ATPase NADH coupling:Standard Screening:hPolQ IC50
# Procedure: The ability of the compounds of Formula (I), (II), (III), (IV), or Table 1 (Examples 1 to Example 268) to inhibit ATPase activity of Polθ theta (1-899) was determined using the assay described below. Polθ Theta ATPase activity was determined by measuring the rate of ATP turn over in a NADH oxidation-coupled enzymatic assay. […] The reaction was monitored for 30 min by measuring absorbance (λ=340 nm) in a Tecan Spark multimode plate reader every minute. […]
measure name: IC50

Input: Enter reported IC50 observed with Polθ theta (1-899) (hPolQ) (Homo sapiens (Human)) for COc1cnc(Cl)cc1-c1cc(C)ncc1C(=O)Nc1nnc(OC[C@@H]2CC[C@H](O)C2)s1 (single isomer, unassigned)
Output: ≤ 200 nM

Kindly give each listed record's IC50.
1. Cc1cc(-c2c(F)cccc2OC(F)F)c(C(=O)Nc2nnc(OCc3cnc(CO)cn3)s2)cn1
2. COc1ccccc1-c1cc(C)ncc1C(=O)Nc1nnc(OCc2ncccc2CO)s1
3. COc1cnc(Cl)cc1-c1cc(C)ncc1C(=O)Nc1nnc(OC[C@@H]2COC3(CCC3)C2)s1 (single isomer, unassigned)
4. COc1cccc(F)c1-c1cn2ncc(C)c2cc1C(=O)Nc1nnc(OC[C@H]2CC[C@H](O)CC2)s1

Output:
1. ≤ 200 nM
2. 200 to 500 nM
3. ≤ 200 nM
4. 1000 to 10000 nM

---

# measured on: Polθ theta (1-899) (hPolQ) (Homo sapiens (Human), UniProt O75417)
# Sequence (O75417 1-899): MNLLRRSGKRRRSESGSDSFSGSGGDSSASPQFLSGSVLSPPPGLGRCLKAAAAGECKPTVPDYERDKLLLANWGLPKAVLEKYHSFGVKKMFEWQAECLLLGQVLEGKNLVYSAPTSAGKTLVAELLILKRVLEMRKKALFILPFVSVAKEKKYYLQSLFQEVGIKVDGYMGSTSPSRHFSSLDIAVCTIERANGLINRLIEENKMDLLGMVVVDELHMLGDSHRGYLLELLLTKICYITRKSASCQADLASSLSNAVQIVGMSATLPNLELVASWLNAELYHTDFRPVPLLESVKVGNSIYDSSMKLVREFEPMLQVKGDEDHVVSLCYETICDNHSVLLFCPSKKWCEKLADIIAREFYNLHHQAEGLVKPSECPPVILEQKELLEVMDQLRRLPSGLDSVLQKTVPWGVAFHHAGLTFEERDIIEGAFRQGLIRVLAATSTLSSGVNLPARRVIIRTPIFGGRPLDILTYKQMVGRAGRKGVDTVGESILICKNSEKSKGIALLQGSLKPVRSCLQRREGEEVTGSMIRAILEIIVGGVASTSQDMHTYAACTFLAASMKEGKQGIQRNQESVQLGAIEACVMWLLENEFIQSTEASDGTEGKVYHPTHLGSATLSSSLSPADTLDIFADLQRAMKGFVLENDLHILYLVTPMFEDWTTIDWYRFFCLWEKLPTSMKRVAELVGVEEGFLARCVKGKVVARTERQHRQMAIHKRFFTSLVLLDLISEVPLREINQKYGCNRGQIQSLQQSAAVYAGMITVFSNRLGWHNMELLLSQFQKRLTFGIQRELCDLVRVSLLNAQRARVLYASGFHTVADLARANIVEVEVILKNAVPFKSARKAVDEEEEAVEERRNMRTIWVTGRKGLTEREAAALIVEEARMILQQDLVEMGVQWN
# protocol details: Biological Assay 1: Polθ ATPase activity, NADH oxidation-coupled enzymatic assay (10 nM enzyme, 30 min)
# Type: biochemical
# condition label: Polθ (1-899) 10 nM, 100 μM ATP, 300 nM dT50 ssDNA; Examples 1 to 268; read-out: ATPase NADH coupling:Standard Screening:hPolQ IC50
measure name: IC50

Input: Could you share which IC50 value was measured for "COc1ccc(C)cc1-c1cc(C)ncc1C(=O)Nc1nnc(OCc2cnc(CO)cn2)s1" ?
Output: ≤ 200 nM

Input: What do you have for Cc1cc(-c2cc(Cl)ncc2OC(F)F)c(C(=O)Nc2nnc(OC[C@H]3CCOC3)s2)cn1 (single isomer, unassigned) ?
Output: ≤ 200 nM

Input: What do you have for "COc1cccc(F)c1-c1cn2ncc(F)c2cc1C(=O)Nc1nnc(OC[C@H]2CC[C@H](O)CC2)s1" ?
Output: ≤ 200 nM

Input: What do you have for "COc1cnc(Cl)cc1-c1cc(C)ncc1C(=O)Nc1nnc(OCC2(C#N)CC2)s1" ?
Output: ≤ 200 nM

Input: What do you have for "COc1cnc(Cl)c(F)c1-c1cc(C)ncc1C(=O)Nc1nnc(OC[C@H]2COCCO2)s1" ?
Output: ≤ 200 nM

Input: What do you have for "COc1cnc(Cl)cc1-c1cc(C)ncc1C(=O)Nc1nnc(OCc2ccc(OC(F)F)cn2)s1" ?
Output: ≤ 200 nM

Input: What do you have for "COc1cnc(Cl)cc1-c1cc(C)ncc1C(=O)Nc1nnc(OCc2ccc(C3(C)COC3)cn2)s1" ?
Output: ≤ 200 nM

Input: What do you have for "COc1ccccc1-c1cc(C)ncc1C(=O)Nc1nnc(OCc2cc(CO)ccn2)s1" ?
Output: 200 to 500 nM

Kindly give each listed record's IC50.
1. COc1cnc(Cl)cc1-c1cc(C)ncc1C(=O)Nc1nnc(OCC23CC(O)(C2)C3)s1
2. CCc1cc(-c2cc(C)ncc2C(=O)Nc2nnc(OCc3ccc(C(C)(C)O)cn3)s2)c(OC)cn1
3. COc1cnc(C)cc1-c1cc(C)ncc1C(=O)Nc1nnc(OC[C@H]2CC[C@@H](O)CC2)s1
4. COc1cnc(Cl)cc1-c1cc(C)ncc1C(=O)Nc1nnc(OCC2CCC(F)(F)CC2)s1
5. COc1cnc(Cl)cc1-c1cc(C)ncc1C(=O)Nc1nnc(OCC23COC(C2)C3)s1

Output:
["≤ 200 nM", "≤ 200 nM", "≤ 200 nM", "≤ 200 nM", "≤ 200 nM"]

Kindly give each listed record's IC50.
1. COCc1cccc(COc2nnc(NC(=O)c3cnc(C)cc3-c3ccccc3OC)s2)n1
2. COc1cnc(C)cc1-c1cc(C)ncc1C(=O)Nc1nnc(OCc2cnc(CO)cn2)s1
3. COc1cccnc1-c1cc(C)ncc1C(=O)Nc1nnc(OCc2ccc(Cl)cn2)s1

Output:
1. 200 to 500 nM
2. ≤ 200 nM
3. 200 to 500 nM

---

# measured on: Polθ theta (1-899) (hPolQ) (Homo sapiens (Human))
# protocol details: Biological Assay 1: Polθ ATPase activity, NADH oxidation-coupled enzymatic assay (10 nM enzyme, 30 min)
# Assay type: biochemical
# condition label: Polθ (1-899) 10 nM, 100 μM ATP, 300 nM dT50 ssDNA; Examples 1 to 268; read-out: ATPase NADH coupling:Standard Screening:hPolQ IC50
measure name: IC50

Worked cases, IC50 given:
Input: Could you share which IC50 value was measured for "COc1cccc(F)c1-c1cc(C)ncc1C(=O)Nc1nnc(OCc2ccc([C@@H](C)O)cn2)s1" ?
Output: ≤ 200 nM

Input: What do you have for "COc1cccc(F)c1-c1cc(C)ncc1C(=O)Nc1nnc(OC[C@H]2CC[C@H](O)CC2)s1" ?
Output: ≤ 200 nM

Input: What do you have for "COc1cccc(F)c1-c1cc(C)ncc1C(=O)Nc1nnc(OCC2CCS(=O)(=O)CC2)s1" ?
Output: ≤ 200 nM

Input: What do you have for "COc1ccc(Cl)cc1-c1cc(C)ncc1C(=O)Nc1nnc(OCc2cnc(CO)cn2)s1" ?
Output: ≤ 200 nM

Input: What do you have for "Cc1cc(-c2ccccc2OC(F)F)c(C(=O)Nc2nnc(OCc3ccc(C(C)(C)O)cn3)s2)cn1" ?
Output: ≤ 200 nM

Kindly give each listed record's IC50.
1. COc1cnc(Cl)cc1-c1cc(C)ncc1C(=O)Nc1nnc(OCC2COC2)s1
2. COc1cnc(Cl)cc1-c1cc(C)ncc1C(=O)Nc1nnc(OC[C@@H]2COCCO2)s1
3. COc1cnc(Cl)cc1-c1cc(C)ncc1C(=O)Nc1nnc(OCC2(C)CCOC2)s1 (centres unmarked)

Output:
["≤ 200 nM", "≤ 200 nM", "≤ 200 nM"]

---

# measured on: Polθ theta (1-899) (hPolQ) (Homo sapiens (Human), UniProt O75417)
# protocol details: Biological Assay 1: Polθ ATPase activity, NADH oxidation-coupled enzymatic assay (10 nM enzyme, 30 min)
# Format: biochemical
# condition label: Polθ (1-899) 10 nM, 100 μM ATP, 300 nM dT50 ssDNA; Examples 1 to 268; read-out: ATPase NADH coupling:Standard Screening:hPolQ IC50
measure name: IC50

Input: Enter reported IC50 observed with Polθ theta (1-899) (hPolQ) (Homo sapiens (Human), UniProt O75417) for COc1ccc(Cl)cc1-c1cnncc1C(=O)Nc1nnc(OCC23CCC(O)(CC2)CC3)s1 [Example 121]
Output: 200 to 500 nM

Kindly give each listed record's IC50.
1. COc1ccc(Cl)cc1-c1cc(C)ncc1C(=O)Nc1nnc(OCc2ccc(C(C)(C)O)cn2)s1 [Example 96]
2. COc1cccc(F)c1-c1cc(C)ncc1C(=O)Nc1nnc(OCC23CCC(O)(CC2)C3)s1 [Example 112]
3. COc1cnc(Cl)cc1-c1cc(C)ncc1C(=O)Nc1nnc(OCC2CC2(F)F)s1 (stereo not shown) [Example 206]

Output:
["≤ 200 nM", "≤ 200 nM", "≤ 200 nM"]

---

# measured on: Polθ theta (1-899) (hPolQ) (Homo sapiens (Human))
# protocol details: Biological Assay 2: Polθ ATPase activity, NADH oxidation-coupled enzymatic assay (5 nM enzyme, 120 min)
# Assay type: biochemical
# condition label: Polθ (1-899) 5 nM, 100 μM ATP, 300 nM dT50 ssDNA; Examples 269 to 271; read-out: ATPase NADH coupling:Standard Screening:hPolQ IC50
pIC50: −log10 of the molar value.
measure name: pIC50

Worked cases, pIC50 given:
Input: Could you share which pIC50 value was measured for "COc1cnc(Cl)cc1-c1cc(C)ncc1C(=O)Nc1nnc(OCC2(F)CN(C)C2)s1" ?
Output: ≥ 6.70

Input: What do you have for "COc1cnc(Cl)cc1-c1cc(C)ncc1C(=O)Nc1nnc(OCC(C)(C)N2CCNC2=O)s1" ?
Output: ≥ 6.70

For the next question, use this molecule.
Input: Could you share which pIC50 value was measured for "COc1cnc(Cl)cc1-c1cc(C)ncc1C(=O)Nc1nnc(OC[C@@H]2CCN(C(C)=O)C2)s1" ?
Output: 5.00 to 6.00
